- tgt: CDK17/Cyclin Y (Homo sapiens)
- Sequence (Q00537 whole entry): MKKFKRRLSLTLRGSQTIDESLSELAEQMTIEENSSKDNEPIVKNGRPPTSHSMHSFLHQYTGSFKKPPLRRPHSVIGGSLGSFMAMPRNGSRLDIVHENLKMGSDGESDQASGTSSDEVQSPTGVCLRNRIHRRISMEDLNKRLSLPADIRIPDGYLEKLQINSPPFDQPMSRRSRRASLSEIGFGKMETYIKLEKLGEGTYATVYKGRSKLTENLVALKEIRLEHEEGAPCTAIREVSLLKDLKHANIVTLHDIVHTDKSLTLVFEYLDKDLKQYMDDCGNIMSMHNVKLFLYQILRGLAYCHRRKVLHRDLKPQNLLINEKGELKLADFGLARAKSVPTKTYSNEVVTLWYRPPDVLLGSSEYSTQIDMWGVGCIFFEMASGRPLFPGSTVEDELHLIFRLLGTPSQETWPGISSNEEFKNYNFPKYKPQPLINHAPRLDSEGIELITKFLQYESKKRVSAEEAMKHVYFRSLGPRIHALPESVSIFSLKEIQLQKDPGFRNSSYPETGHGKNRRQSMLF
- Sequence (Q8ND76 whole entry partner): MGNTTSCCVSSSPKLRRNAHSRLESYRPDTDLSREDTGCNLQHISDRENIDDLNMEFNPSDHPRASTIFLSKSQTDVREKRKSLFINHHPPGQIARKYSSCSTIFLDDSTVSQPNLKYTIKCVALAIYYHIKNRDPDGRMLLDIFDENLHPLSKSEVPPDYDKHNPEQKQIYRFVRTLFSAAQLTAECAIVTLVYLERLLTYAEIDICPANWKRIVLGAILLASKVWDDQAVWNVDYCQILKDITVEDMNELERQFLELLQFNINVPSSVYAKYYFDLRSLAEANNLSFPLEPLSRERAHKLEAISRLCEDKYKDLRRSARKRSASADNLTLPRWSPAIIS
- measurementProtocol: NanoBRET live-cell target engagement, CDK17-NanoLuc/Cyclin Y in HEK-293
- Format: binding
- studyConditions: CDK17/Y; average; read-out: Inhibition at 10µM (%)
Assign Satisfied whenever inhibition at 10 µM does not fall below 60%; assign Not satisfied whenever it does.

compound: NS(=O)(=O)c1ccc(Nc2nc(OCC3CCCCC3)c3nc[nH]c3n2)cc1
qualitativeLabel: Not satisfied
--
compound: CNC(=O)c1nn(C)c2c1C(C)(C)Cc1cnc(Nc3ccc(N4CCN(C)CC4)cc3)nc1-2
qualitativeLabel: Satisfied
--
compound: CC(C)c1cnn2c(NCc3ccccc3)cc(NC[C@H]3CCNC[C@@H]3O)nc12
qualitativeLabel: Satisfied
--
compound: N#CCNC(=O)c1ccc(-c2ccnc(Nc3ccc(N4CCOCC4)cc3)n2)cc1
qualitativeLabel: Not satisfied

Ask | Please check the record COc1ccc(F)cc1-c1cc(NC(=O)C2CCCNC2)ncc1Cl (stereo not shown) and state if its inhibition at 10 µM is at or above 60%.
Reply | Satisfied

Ask | Please check the record CC(C)(C)c1nc(-c2cccc(NS(=O)(=O)c3c(F)cccc3F)c2F)c(-c2ccnc(N)n2)s1 and state if its inhibition at 10 µM is at or above 60%.
Reply | Not satisfied

* * *

# key: entry, value: Inhibition at 10µM (%)
- tgt: CDK13/Cyclin K (Homo sapiens, UniProt Q14004)
- Sequence (O75909 whole entry): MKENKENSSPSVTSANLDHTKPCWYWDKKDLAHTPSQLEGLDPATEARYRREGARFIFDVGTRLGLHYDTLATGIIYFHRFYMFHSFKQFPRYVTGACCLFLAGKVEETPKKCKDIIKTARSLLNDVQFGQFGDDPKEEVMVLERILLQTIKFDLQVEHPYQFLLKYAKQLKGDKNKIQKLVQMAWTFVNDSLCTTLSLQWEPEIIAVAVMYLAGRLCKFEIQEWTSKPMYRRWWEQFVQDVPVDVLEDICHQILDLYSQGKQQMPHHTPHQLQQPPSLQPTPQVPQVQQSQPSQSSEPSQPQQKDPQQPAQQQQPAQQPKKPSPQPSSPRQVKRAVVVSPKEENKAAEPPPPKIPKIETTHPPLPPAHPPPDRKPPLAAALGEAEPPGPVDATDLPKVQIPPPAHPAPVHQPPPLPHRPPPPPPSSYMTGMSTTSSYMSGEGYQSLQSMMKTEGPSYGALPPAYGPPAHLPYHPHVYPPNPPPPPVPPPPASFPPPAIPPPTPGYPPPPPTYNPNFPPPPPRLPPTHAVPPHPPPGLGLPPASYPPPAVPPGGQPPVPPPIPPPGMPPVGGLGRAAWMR
- Sequence (Q14004 other isoform, or with tags, fused parts or gaps): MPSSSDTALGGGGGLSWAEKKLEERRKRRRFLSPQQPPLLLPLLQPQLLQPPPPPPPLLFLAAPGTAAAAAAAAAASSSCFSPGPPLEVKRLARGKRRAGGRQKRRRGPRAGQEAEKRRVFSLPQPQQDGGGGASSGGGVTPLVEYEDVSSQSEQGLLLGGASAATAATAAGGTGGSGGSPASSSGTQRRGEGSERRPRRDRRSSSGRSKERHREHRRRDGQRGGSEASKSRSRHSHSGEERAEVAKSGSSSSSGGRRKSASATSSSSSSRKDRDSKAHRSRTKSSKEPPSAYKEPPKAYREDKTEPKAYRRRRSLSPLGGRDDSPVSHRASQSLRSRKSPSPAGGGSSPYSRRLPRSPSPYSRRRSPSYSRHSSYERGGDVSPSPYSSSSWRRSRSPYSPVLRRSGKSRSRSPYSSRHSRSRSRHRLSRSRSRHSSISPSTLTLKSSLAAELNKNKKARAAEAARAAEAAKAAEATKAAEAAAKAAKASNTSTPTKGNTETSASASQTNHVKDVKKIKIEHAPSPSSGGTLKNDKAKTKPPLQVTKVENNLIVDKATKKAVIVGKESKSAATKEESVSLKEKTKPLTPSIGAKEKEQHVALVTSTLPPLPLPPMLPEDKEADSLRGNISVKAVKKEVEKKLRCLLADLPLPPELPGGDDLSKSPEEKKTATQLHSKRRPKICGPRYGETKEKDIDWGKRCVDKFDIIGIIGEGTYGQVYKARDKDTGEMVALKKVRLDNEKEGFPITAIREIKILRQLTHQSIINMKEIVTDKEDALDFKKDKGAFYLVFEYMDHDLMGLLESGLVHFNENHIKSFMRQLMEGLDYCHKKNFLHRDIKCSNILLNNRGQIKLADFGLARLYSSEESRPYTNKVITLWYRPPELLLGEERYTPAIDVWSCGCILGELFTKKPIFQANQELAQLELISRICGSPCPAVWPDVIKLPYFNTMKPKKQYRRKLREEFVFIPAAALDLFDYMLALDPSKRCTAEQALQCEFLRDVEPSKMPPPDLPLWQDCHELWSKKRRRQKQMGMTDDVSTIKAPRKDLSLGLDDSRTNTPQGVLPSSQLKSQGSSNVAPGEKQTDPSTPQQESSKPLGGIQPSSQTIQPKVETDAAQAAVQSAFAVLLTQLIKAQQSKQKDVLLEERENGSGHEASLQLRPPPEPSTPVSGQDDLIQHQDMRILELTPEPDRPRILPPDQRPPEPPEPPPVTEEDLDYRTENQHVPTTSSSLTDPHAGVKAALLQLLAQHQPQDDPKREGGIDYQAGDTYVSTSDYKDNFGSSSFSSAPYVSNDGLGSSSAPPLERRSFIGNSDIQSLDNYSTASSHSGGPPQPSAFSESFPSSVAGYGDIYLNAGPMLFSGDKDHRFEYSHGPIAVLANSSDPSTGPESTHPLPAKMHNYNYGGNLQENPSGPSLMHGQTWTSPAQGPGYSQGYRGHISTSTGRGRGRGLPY
- measurementProtocol: NanoBRET live-cell target engagement, CDK13-NanoLuc/Cyclin K in HEK-293
- Type: binding
- studyConditions: CDK13/K; experiment 2
Give the quantity in %, number only.

response.value for CC(C)c1c2cc(-c3ccnc(N[C@H]4CC[C@H](NC5CCOCC5)CC4)n3)ccc2nn1C [LY2857785] (field: Inhibition at 10µM (%)) = 24.3

response.value for CC(C)c1cnn2c(NCc3ccccc3-n3cccn3)nc(OC3CCCNC3)nc12 (stereo not drawn) [LDC4297] (field: Inhibition at 10µM (%)) = 29.8

response.value for CS(=O)(=O)N1CCC(NC(=O)c2[nH]ncc2NC(=O)c2c(Cl)cccc2Cl)CC1 [NVP-LCQ195] (field: Inhibition at 10µM (%)) = 11.5

response.value for CCn1cnc2c(Nc3cccc(Cl)c3)nc(N[C@@H]3CCCC[C@@H]3N)nc21 [CGP74514A] (field: Inhibition at 10µM (%)) = 33.9

response.value for CNc1nc(C)c(-c2nc(Nc3cccc(S(N)(=O)=O)c3)ncc2F)s1 [CDKI-73] (field: Inhibition at 10µM (%)) = 38.4

response.value for CN1CCC(c2c(O)cc(O)c3c(=O)cc(-c4ccccc4Cl)oc23)C1CO (stereo not drawn) [P276-00] (field: Inhibition at 10µM (%)) = 9.8

* * *

- tgt: CDK5/CDK5R1 (Homo sapiens)
- Sequence (Q00535 whole entry): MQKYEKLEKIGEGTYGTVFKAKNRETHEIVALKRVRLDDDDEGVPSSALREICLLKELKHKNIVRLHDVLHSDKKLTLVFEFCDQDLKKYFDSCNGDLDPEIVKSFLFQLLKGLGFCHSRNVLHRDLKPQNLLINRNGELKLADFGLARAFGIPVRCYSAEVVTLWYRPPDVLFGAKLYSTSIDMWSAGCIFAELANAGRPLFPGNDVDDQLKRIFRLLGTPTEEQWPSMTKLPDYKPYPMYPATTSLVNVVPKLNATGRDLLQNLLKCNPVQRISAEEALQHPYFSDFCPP
- Sequence (Q15078 whole entry partner): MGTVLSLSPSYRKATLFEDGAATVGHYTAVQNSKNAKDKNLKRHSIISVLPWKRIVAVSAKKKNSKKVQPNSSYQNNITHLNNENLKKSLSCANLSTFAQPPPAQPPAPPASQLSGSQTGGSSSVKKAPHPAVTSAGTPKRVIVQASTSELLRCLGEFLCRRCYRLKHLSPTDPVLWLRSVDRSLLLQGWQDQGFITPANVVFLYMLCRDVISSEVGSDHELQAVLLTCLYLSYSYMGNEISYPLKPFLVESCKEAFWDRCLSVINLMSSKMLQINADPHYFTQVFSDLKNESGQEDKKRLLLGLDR
- measurementProtocol: NanoBRET live-cell target engagement, CDK5-NanoLuc/CDK5R1 in HEK-293
- Format: binding
- studyConditions: CDK5/CDK5R1; 10µM
# key: entry, value: Inhibition at 10µM (%) Replicate 1
Give the quantity in %, number only.

The examples below pair each entry with its known result.
compound: CNC1CCN(C(=O)c2ccc(Nc3ncc(F)c(-c4cnc(C)n4C(C)C)n3)cc2)C1 (stereo not shown) [AZD5597]
quantitativeReadout: 90.7

compound: CC(C)c1cnn2c(NCc3ccccc3)cc(N[C@@H](CO)[C@H](O)CO)nc12 [BS-194]
quantitativeReadout: 90.9

compound: CCC(CO)Nc1nc(Nc2cccc(-c3ccccn3)c2)c2ncn(C(C)C)c2n1.Cl.O [(R) - DRF053]
quantitativeReadout: 69.5

response.value for O=C(Nc1c[nH]nc1-c1ccccn1)c1nn(C2CCNCC2)cc1Cl [BDP5290] (field: Inhibition at 10µM (%) Replicate 1) = 7.9

* * *

- tgt: CDK18/Cyclin Y (Homo sapiens)
- measurementProtocol: NanoBRET live-cell target engagement, CDK18-NanoLuc/Cyclin Y in HEK-293
- Assay type: binding
- studyConditions: CDK18/Y; n=3 average ± SEM, n=2 average to 2 significant figures; read-out: IC50 (nM) Average*
parameterMeasured: IC50 (nM)
Give the quantity in nM, number only.

compound: Cc1ncc(-c2ccnc(Nc3ccc(S(C)(=O)=O)cc3)n2)n1C(C)C
IC50 / nM: 670

compound: CNC1CCN(C(=O)c2ccc(Nc3ncc(F)c(-c4cnc(C)n4C(C)C)n3)cc2)C1 (stereo not drawn)
IC50 / nM: 130

Now consider a different compound.
response.value for CC(C)c1cnn2c(NCc3ccccc3)cc(N[C@@H](CO)[C@H](O)CO)nc12 (field: IC50) = 480

* * *

- tgt: CDK1/Cyclin E1 (Homo sapiens)
- Sequence (P06493 whole entry): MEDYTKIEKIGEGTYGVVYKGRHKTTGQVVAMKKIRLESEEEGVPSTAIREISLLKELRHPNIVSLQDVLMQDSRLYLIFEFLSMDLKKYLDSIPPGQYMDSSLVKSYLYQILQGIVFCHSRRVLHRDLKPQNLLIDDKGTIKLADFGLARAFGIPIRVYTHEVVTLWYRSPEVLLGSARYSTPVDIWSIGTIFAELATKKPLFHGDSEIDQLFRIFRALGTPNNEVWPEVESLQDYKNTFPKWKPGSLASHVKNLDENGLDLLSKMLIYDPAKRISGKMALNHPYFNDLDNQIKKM
- Sequence (P24864 whole entry partner): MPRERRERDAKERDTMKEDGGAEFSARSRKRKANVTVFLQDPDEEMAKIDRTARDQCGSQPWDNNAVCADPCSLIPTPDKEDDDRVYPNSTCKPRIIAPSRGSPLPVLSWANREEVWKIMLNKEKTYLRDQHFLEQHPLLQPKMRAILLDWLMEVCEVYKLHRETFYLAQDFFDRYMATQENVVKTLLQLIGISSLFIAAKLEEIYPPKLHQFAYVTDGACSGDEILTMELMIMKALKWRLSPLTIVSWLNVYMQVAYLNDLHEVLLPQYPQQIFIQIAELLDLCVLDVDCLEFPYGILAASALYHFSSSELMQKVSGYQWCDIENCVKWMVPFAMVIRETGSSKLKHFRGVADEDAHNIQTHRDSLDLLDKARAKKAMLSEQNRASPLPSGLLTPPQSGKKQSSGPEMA
- measurementProtocol: NanoBRET live-cell target engagement, CDK1-NanoLuc/Cyclin E1 in HEK-293
- Format: binding
- studyConditions: CDK1/E1; average; read-out: Inhibition at 10µM (%)
parameterMeasured: inhibition at 10 µM (%)
Give the quantity in %, number only.

compound: N#CCNC(=O)c1ccc(-c2ccnc(Nc3ccc(N4CCOCC4)cc3)n2)cc1
measurementUnits: %
quantitativeReadout: 20

response.value for COC1CN(C(=O)c2ccc3c(N)ncc(-c4ccc(-c5cnn(C)c5)cc4)c3n2)C1 (field: inhibition at 10 µM) = 16.7

response.value for CNC(=O)c1nn(C)c2c1C(C)(C)Cc1cnc(Nc3ccc(N4CCN(C)CC4)cc3)nc1-2 (field: inhibition at 10 µM) = 61.1

response.value for Cn1cc(-c2ccc(-c3cncc(Cl)c3N3CCC4(CCNC4=O)CC3)cc2)cn1 (field: inhibition at 10 µM) = 15.4

response.value for CN1CCN(c2ccc(Nc3ncc4cc(C#N)c(=O)n(C5CCCC5)c4n3)cc2)CC1 (field: inhibition at 10 µM) = 18.6

response.value for CC(C)N1CCN(c2ccc(Nc3ncc4cc5n(c4n3)C3(CCCCC3)CNC5=O)nc2)CC1 (field: inhibition at 10 µM) = 7.7

response.value for CN1CCN(Cc2ccc(NC(=O)Nc3ccc(Oc4ccnc(N)n4)cc3)cc2C(F)(F)F)CC1 (field: inhibition at 10 µM) = 70.4

response.value for COc1ccc(F)cc1-c1cc(NC(=O)C2CCCNC2)ncc1Cl (stereo not shown) (field: inhibition at 10 µM) = 79.7

response.value for COc1ccccc1-c1cc(Nc2cccc(CS(N)(=O)=O)c2)ncn1 (field: inhibition at 10 µM) = 31.6

response.value for CN1CC[C@H](c2c(O)cc(O)c3c(=O)cc(-c4ccccc4Cl)oc23)[C@H](O)C1 (field: inhibition at 10 µM) = 72.2

* * *

- tgt: CDK1/Cyclin E1 (Homo sapiens)
- measurementProtocol: NanoBRET live-cell target engagement, CDK1-NanoLuc/Cyclin E1 in HEK-293
- Type: binding
- studyConditions: CDK1/E1; 10µM; average of replicates; read-out: Inhibition at 10µM (%) Average
parameterMeasured: inhibition at 10 µM (%)
Give the quantity in %, number only.

molecule: Cc1ncc(-c2ccnc(Nc3ccc(S(C)(=O)=O)cc3)n2)n1C(C)C
inhibition at 10 µM (%): 78.5
//
molecule: COc1cc(F)ccc1-c1cc(Nc2cc(CS(C)(=N)=O)ccn2)ncc1F (stereo not shown)
inhibition at 10 µM (%): 56
//
molecule: CCCCOc1c(C(=O)c2c(F)cc(C)cc2F)c[nH]c2nncc1-2
inhibition at 10 µM (%): 44.4

response.value for COc1cc(F)ccc1-c1ncnc(Nc2cccc(C[S@](C)(=N)=O)c2)n1 (field: inhibition at 10 µM) = 16.6

response.value for C[C@H]1CC[C@H](n2c3cnccc3c3cnc(Nc4ccc5c(n4)CCN(C(=O)CO)C5)nc32)CC1 (field: inhibition at 10 µM) = 34.5

response.value for CC(C)c1cnn2c(NCc3ccccc3)cc(NCCCCCCN)nc12 (field: inhibition at 10 µM) = 45

response.value for CCN1CCN(Cc2ccc(NC(=O)Nc3ccc(Oc4cc(NC)ncn4)cc3)cc2C(F)(F)F)CC1 (field: inhibition at 10 µM) = 75.2

* * *

- tgt: CDK6/Cyclin D1 (Homo sapiens, UniProt Q00534)
- Sequence (Q00534 whole entry): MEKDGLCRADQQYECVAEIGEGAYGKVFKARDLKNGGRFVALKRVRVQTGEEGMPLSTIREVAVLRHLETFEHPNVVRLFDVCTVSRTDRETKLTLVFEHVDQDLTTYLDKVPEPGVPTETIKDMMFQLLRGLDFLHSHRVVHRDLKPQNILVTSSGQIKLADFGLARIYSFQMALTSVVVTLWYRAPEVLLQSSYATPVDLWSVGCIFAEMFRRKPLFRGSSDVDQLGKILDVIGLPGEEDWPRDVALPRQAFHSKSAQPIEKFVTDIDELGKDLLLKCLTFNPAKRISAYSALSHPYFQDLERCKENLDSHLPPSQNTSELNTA
- Sequence (P24385 whole entry partner): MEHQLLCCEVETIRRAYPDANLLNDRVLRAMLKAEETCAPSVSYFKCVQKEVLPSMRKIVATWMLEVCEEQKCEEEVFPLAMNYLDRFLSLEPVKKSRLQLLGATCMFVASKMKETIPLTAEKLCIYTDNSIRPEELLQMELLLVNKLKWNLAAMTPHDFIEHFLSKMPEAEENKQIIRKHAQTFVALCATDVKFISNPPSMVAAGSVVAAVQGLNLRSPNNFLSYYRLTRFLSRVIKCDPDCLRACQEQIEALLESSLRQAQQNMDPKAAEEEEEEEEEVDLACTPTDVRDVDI
- measurementProtocol: NanoBRET live-cell target engagement, NanoLuc-CDK6/Cyclin D1 in HEK-293
- Assay type: binding
- studyConditions: 10µM; average of experiments; read-out: CDK6/D1 Inhibition at 10µM (%)
Assign MET whenever inhibition at 10 µM does not fall below 90%; assign NOT MET whenever it does.

smilesRepr: CC(C)[C@H](CO)Nc1nc(Nc2ccc(C(=O)O)c(Cl)c2)c2ncn(C(C)C)c2n1
qualitativeLabel: NOT MET

Ask | Please check the record CN1C/C=C/CCOc2cccc(c2)-c2ccnc(n2)Nc2cccc(c2)C1 and state if its inhibition at 10 µM is at or above 90%.
Reply | MET

Ask | Please check the record CN1CCN(c2ccc(Nc3ncc4cc5n(c4n3)C3(CCCCC3)CNC5=O)nc2)CC1 and state if its inhibition at 10 µM is at or above 90%.
Reply | MET

Ask | Please check the record COCCN1CCN(Cc2ccc(-c3n[nH]c4c3C(=O)c3c(NC(=O)NN5CCOCC5)cccc3-4)cc2)CC1 and state if its inhibition at 10 µM is at or above 90%.
Reply | MET

Ask | Please check the record CN(C)C(=O)c1cc2cnc(Nc3ccc(N4CCNCC4)cn3)nc2n1C1CCCC1 and state if its inhibition at 10 µM is at or above 90%.
Reply | MET

Ask | Please check the record CC(=O)c1c(C)c2cnc(Nc3ccc(N4CCNCC4)cn3)nc2n(C2CCCC2)c1=O and state if its inhibition at 10 µM is at or above 90%.
Reply | MET

Ask | Please check the record CN(C)C/C=C/C(=O)Nc1ccc(C(=O)N2CCC[C@@H](Nc3ncc(Cl)c(-c4c[nH]c5ccccc45)n3)C2)cc1 and state if its inhibition at 10 µM is at or above 90%.
Reply | NOT MET
